Reference for the values: patent US7683168B2

System: seizure-like convulsions in mice
Experiment: mouse seizure-like convulsions
Format: in vivo
Conditions: 10 mg/kg IV
The entries below come with measured Seiz. values attached.

| Molecule | Seiz. [% 10 mg/kg IV] |
| --- | --- |
| C[C@@H]1CN([C@@H](c2cccc(O)c2)c2cccc(C(=O)N3CCN(CCCC(=O)O)CC3)c2)[C@@H](C)CN1Cc1ccccc1 | 0 |
| C=CCN1C[C@H](C)N([C@@H](c2cccc(O)c2)c2cccc(C(=O)N3CCCN(CCCCC(=O)OCC)CC3)c2)C[C@H]1C | 0 |
| C[C@@H]1CN(C(c2cccc(O)c2)c2cccc(C(=O)N3CCCN(CCCCC(=O)O)CC3)c2)[C@@H](C)CN1Cc1cccc(F)c1 (stereo partly drawn) | 0 |

====

Target: δ opioid receptor (Rattus norvegicus, UniProt P33533)
Construct: tissue Pel-Freeze Biological Inc. (Rogers, Ark.)
Sequence (P33533 whole entry): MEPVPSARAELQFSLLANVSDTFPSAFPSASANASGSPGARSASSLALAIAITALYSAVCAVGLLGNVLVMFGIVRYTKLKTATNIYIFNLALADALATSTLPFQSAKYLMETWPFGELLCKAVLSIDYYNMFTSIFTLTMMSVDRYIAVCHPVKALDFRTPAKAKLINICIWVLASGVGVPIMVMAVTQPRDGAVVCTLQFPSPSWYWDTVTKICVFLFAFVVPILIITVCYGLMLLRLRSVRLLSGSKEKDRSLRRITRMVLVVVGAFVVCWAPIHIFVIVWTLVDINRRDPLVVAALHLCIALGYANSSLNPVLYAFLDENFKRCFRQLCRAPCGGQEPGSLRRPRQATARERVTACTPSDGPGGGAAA
Assay: radioligand binding, δ opioid receptor, rat brain membranes
Settings: cell marked (rat), tritium-labeled Deltorphin II
pKi: −log10 of the molar value.
The entries below come with measured pKi values attached.
Parameter Measured: pKi

| Compound | Parameter Measured | Recorded Result |
| --- | --- | --- |
| CCOC(=O)CCN1CCCN(C(=O)c2cccc([C@H](c3cccc(O)c3)N3C[C@@H](C)N(Cc4ccccc4)C[C@@H]3C)c2)CC1 | pKi | 8.92 |
| C=CCN1C[C@H](C)N(C(c2cccc(O)c2)c2cccc(C(=O)N3CCCN(CC(=O)O)CC3)c2)C[C@H]1C (stereo partly shown) | pKi | 8.45 |
| C[C@@H]1CN([C@@H](c2cccc(O)c2)c2cccc(C(=O)N3CCCN(CCC(=O)O)CC3)c2)[C@@H](C)CN1Cc1ccccc1 | pKi | 8.40 |
| C=CCN1C[C@H](C)N([C@@H](c2cccc(O)c2)c2cccc(C(=O)N3CCCN(CCCCC(=O)O)CC3)c2)C[C@H]1C | pKi | 8.19 |
| C=CCN1C[C@H](C)N([C@@H](c2cccc(O)c2)c2cccc(C(=O)N3CCCN(CCC(=O)O)CC3)c2)C[C@H]1C | pKi | 8.52 |
| C=CCN1C[C@H](C)N(C(c2ccc(C(=O)N3CCCN(CCCC(=O)OCC)CC3)cc2)c2cccc(O)c2)C[C@H]1C (stereo partly shown) | pKi | 8.72 |
| C=CCN1C[C@H](C)N([C@@H](c2cccc(O)c2)c2cccc(C(=O)N3CCCN(CCC(=O)OCC)CC3)c2)C[C@H]1C | pKi | 9.24 |
| C=CCN1C[C@H](C)N([C@@H](c2cccc(O)c2)c2cccc(C(=O)N3CCCN(CCCC(=O)O)CC3)c2)C[C@H]1C | pKi | 8.56 |
| C=CCN1C[C@H](C)N(C(c2cccc(O)c2)c2cccc(C(=O)N3CCCNCC3)c2)C[C@H]1C (stereo partly shown) | pKi | 8.33 |
| C=CCN1C[C@H](C)N(C(c2ccc(C(=O)N3CCCN(CCCC(=O)O)CC3)cc2)c2cccc(O)c2)C[C@H]1C (stereo partly shown) | pKi | 8.40 |

====

Reported pKi, human mu opioid receptor (Homo sapiens, UniProt P35372).
pKi: −log10 of the molar value.

| Compound | pKi |
| --- | --- |
| C[C@@H]1CN(C(c2cccc(O)c2)c2cccc(C(=O)N3CCCN(CCCC(=O)O)CC3)c2)[C@@H](C)CN1Cc1cccc(F)c1 (stereo partly drawn) | 9.57 |
| CCOC(=O)CCCCCCN1CCCN(C(=O)c2cccc(C(c3cccc(O)c3)N3C[C@@H](C)N(Cc4ccccc4)C[C@@H]3C)c2)CC1 (stereo partly drawn) | 8.42 |
| C[C@@H]1CN([C@@H](c2cccc(O)c2)c2cccc(C(=O)N3CCCN(CCC(=O)O)CC3)c2)[C@@H](C)CN1Cc1cccc(F)c1 | 8.11 |
| C=CCN1C[C@H](C)N([C@@H](c2cccc(O)c2)c2cccc(C(=O)N3CCN(Cc4ccc(C(=O)OC)cc4)CC3)c2)C[C@H]1C | 8.19 |
| CCOC(=O)CCCCCCN1CCCN(C(=O)c2cccc(C(c3cccc(O)c3)N3C[C@@H](C)N(Cc4cccc(F)c4)C[C@@H]3C)c2)CC1 (stereo partly drawn) | 8.15 |
| C[C@@H]1CN([C@@H](c2cccc(O)c2)c2cccc(C(=O)N3CCN(Cc4ccc(C(=O)O)cc4)CC3)c2)[C@@H](C)CN1Cc1cccc(O)c1 | 7.71 |
